Source of measurements: the RNAGym collection of RNA variant scans (doi:10.1002/anie.201605470)

B1: Osa-1-4 twister ribozyme (parent)
chain: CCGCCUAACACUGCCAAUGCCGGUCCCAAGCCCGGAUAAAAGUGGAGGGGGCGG

# Variants of: B1
# PROTOCOL_TEXT: self-cleavage, relative activity (ratio to wild type); higher = more cleavage; co-transcriptional
MEASURED_ATTRIBUTE: self-cleavage
Number, no unit, nothing else.

For C33A G23C , what is its reported self-cleavage?
0.02

Another variant to check: A10G C15G
0.2

Can you check A10U U37G next?
0.04
